- System: LAMA-84;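 also: growth inhibition of LAMA-84 cells, read out with a cell viability assay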
- experiment_notes: cells
- Type: functional, cell-based
- measurement_conditions: Homo sapiens
- Description: SANGER: Inhibition of human LAMA-84 cell growth in a cell viability assay.
pIC50: −log10 of the molar value.

{"compound": "O=C(c1cc(Cc2n[nH]c(=O)c3ccccc23)ccc1F)N1CCN(C(=O)C2CC2)CC1 [OLAPARIB]", "pIC50": "< 5.30"}
{"compound": "Nc1ccn([C@@H]2O[C@H](CO)[C@@H](O)[C@@H]2O)c(=O)n1 [CYTARABINE]", "pIC50": 6.48}
{"compound": "COc1ccc(C2=N[C@@H](c3ccc(Cl)cc3)[C@@H](c3ccc(Cl)cc3)N2C(=O)N2CCNC(=O)C2)c(OC(C)C)c1 [NUTLIN-3]", "pIC50": "< 5.10"}
{"compound": "O=c1cc(-c2cccc3c2Sc2ccccc2S3)oc(N2CCOCC2)c1 [KU-55933]", "pIC50": 5.34}
{"compound": "CCOc1nc(NC(=O)Cc2cc(OC)ccc2OC)cc(N)c1C#N", "pIC50": "< 5.00"}
{"compound": "CC(=O)O[C@@H]1[C@@H](OC(C)=O)[C@@H](O)[C@H](Oc2c(-c3ccc(O)cc3)oc3cc(O)cc(O)c3c2=O)O[C@H]1C", "pIC50": "< 5.00"}
{"compound": "CNC(=O)c1cc(Oc2ccc(NC(=O)Nc3ccc(Cl)c(C(F)(F)F)c3)cc2)ccn1 [SORAFENIB]", "pIC50": 5.86}
{"compound": "C[C@]1(O)C[C@@H](c2nc(-c3ccc4ccc(-c5ccccc5)nc4c3)c3c(N)nccn32)C1 [LINSITINIB]", "pIC50": "< 5.59"}
